applied conditions: in ethanol, 308.15 K
quantity measured: solubility (mole fraction)

Q: Can you look up the measured solubility (mole fraction) of `NC(=O)c1ccccc1` for me?
Ans: 0.087

###

applied conditions: in methyl acetate, 313.15 K
quantity measured: solubility (mole fraction)
Numbers only.

Q: Can you look up the measured solubility (mole fraction) of `NC(=O)c1ccccc1` for me?
Ans: 0.0662

###

applied conditions: in methanol, 288.15 K
quantity measured: solubility (mole fraction)
Answers are plain numbers.

Q: Can you look up the measured solubility (mole fraction) of `NC(=O)c1ccccc1` for me?
Ans: 0.0699

###

applied conditions: in n-butyl acetate, 318.15 K
quantity measured: solubility (mole fraction)
Numbers only.

Q: Can you look up the measured solubility (mole fraction) of `NC(=O)c1ccccc1` for me?
Ans: 0.0451
